- tested target: Mast/stem cell growth factor receptor Kit (Homo sapiens, UniProt P10721, K642E)
- Sequence (P10721 26-976 K642E limits assumed): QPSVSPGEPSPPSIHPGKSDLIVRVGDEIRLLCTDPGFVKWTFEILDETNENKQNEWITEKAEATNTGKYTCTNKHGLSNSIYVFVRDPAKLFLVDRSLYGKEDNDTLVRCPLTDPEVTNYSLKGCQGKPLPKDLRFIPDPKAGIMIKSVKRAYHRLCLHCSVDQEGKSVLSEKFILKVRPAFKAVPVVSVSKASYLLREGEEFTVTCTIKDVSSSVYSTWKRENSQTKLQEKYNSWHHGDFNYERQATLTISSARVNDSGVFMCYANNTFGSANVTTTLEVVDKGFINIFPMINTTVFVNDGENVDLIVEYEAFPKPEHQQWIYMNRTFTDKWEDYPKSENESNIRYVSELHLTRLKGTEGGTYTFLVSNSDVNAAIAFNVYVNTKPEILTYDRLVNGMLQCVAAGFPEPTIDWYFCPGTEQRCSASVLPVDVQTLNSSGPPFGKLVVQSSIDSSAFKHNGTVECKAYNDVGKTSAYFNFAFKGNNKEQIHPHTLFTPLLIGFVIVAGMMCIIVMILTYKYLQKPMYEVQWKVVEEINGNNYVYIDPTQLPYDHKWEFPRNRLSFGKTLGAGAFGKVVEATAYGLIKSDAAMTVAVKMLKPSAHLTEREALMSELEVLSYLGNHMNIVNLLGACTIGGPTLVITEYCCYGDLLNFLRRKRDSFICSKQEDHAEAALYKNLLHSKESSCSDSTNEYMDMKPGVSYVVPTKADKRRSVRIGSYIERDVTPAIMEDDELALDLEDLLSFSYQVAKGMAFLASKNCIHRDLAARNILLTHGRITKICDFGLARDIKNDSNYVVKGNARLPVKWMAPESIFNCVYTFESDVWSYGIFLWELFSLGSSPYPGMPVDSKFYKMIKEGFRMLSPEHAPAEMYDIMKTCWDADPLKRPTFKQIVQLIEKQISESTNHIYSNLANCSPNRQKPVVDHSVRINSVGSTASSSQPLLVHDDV
- test name: Inhibition of KIT K642E mutant (unknown origin) autophosphorylation expressed in human GIST882 cells by ELISA-based assay
measure name: IC50 (nM)
I only need the number, in nM, no unit after it.

Input line: GET /values?readout=IC50&system=Mast/stem cell growth factor receptor Kit (Homo sapiens, UniProt P10721, K642E)&item= Nc1nccc(Oc2ccc3c(C(=O)Nc4cccc(C(F)(F)F)c4)cccc3c2)n1
Output line: 30

Input line: Note, next up: O=C(Nc1cccc(C(F)(F)F)c1)c1cccc2cc(Oc3cc(CO)ncn3)ccc12
Output line: 30

// data source = ChEMBL document CHEMBL5252510
